The measurements presented in this section are drawn from paper PMC7660924.

Biological target: NIGT1.1 WT (Arabidopsis thaliana (Col-0?))
Sequence: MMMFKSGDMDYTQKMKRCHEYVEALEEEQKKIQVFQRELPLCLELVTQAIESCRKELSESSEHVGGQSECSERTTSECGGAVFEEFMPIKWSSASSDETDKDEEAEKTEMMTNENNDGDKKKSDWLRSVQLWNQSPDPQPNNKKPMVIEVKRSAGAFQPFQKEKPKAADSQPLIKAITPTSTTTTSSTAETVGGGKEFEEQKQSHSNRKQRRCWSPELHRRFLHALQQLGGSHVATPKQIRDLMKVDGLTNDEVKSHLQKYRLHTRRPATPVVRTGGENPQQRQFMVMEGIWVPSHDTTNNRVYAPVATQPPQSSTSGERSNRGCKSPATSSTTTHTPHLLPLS
Test: EMSA
Settings: EMSA: 15 ul reaction, 40 fmol biotin-labeled probe, 7.5-60 ng protein, 4% polyacrylamide gel; buffer, salt, pH and temperature not given (as in ref 24)
recorded metric: binding

Some solved cases for reference:
ACACAGGAAACAGCTATGACCATGCGATGTCTGAATATTAATCACACGATGGCTTATATAGGGTTCCTAGCCAGTGTTGACAATGAAAAAAGCATTCTTTGGAGATTCTCAACGGTTAACTATCGATTTAAATATTAATTTTCGAGGAATCCATTTTCGCCGCAAGCATCTTCCTAGTCTCTCGCTTATCACCAAAGGTTGCCGATATCCTTCCAAATGACCGCTCTACCCTTCCCTCATCTTGC (double strand) [P3 (NRT2.1 promoter)]	binds
AATGAATTAAGACGCGAATCGGGAAAATTCAATAAATTGTCCATTGGGGGGTGCTTTAAAGAAAGATTGAAAGATGCCGAGGTTTATACCCTTTTCCTATCAAGAATATTCCATGGAATCCAACTACTTTTGACCCATTTGCGTATTTGTTAAATCTTTTCAGAAAATCAAAAGTGGGTAAATTGTCAAACTAGTTGTAGTATTGAACTACTATTTATTGATCATGCCATCATCCATGGTCATAGCTGTTTCCTGTGT (double strand) [P1 (SPX1 promoter)]	binds
ACACAGGAAACAGCTATGACCATGAGCTCTTTTATTTTCTGGGAAACTTAAGTGAGAATGATGAATGAAGAAGAAAGAGAGGGGGAAGAGGTTTAGAGATATAAAAGGGATTAAAAAGAATATTCTTAAGGTTTCTAATTAGAATATCCTTTTTTCTCTGTCTTTCTTTCGGGAGAATATCTTCCTTTTATTCCTTTCTTATTTATTACTTTTTCGTGGTTATCTGTGGGTGAGATTATAACACATGCCTATGTCAGTTCATAAATATCAATCACAACTC (double strand) [P2 (SPX1 promoter)]	binds
AATATTTAAATCGATAGTTAACCGTTGAGAATCTCCAAAGAATGCTTTTTTCATTGTCAACACTGGCTAGGAACCCTATATAAGCCATCGTGTGATTAATATTCAGACATCGCATGGTCATAGCTGTTTCCTGTGT (double strand) [P3-2]	no binding

May I ask what binding has been recorded for ACACAGGAAACAGCTATGACCATGCAACGGTTAACTATCGATTTAAATATTAATTTTCGAGGAATCCATTTTCGCCGCAAGCATCTTCCTAGTCTCTCGCTTATCACCAAAGGTTGCCGATATCCTTCCAAATGACCGCTCTACCCTTCCCTCATCTTGC (double strand) [P3-1] ?
no binding
